Assay: adipocyte viability effects, profiling panel, cell-based, 3T3-L1 adipocytes, calcein-AM fluorescence, 48 h, basal (AID 1163); note: test concentration not given here
Settings: 3T3-L1 adipocytes viability, higher = more signal
I'd appreciate it if you marked entries true when z-score is lower than -0.03 and false when it is not.

Prompt line: State whether -0.03 exceeds z-score recorded for NCCCC[C@@H]1NC(=O)[C@H]2C[C@@H](C(=O)O)[C@@H](c3cccc(OCCO)c3)N2C1=O .
Response line: true

---
Prompt line: z-score under -0.03? Item: COc1ccc(CCNC(=O)[C@@]2(Sc3ccc(C)cc3)CC(=O)N(Cc3cc(C(F)(F)F)cc(C(F)(F)F)c3)[C@@H]2c2ccc(CO)cc2)cc1
Response line: false

Prompt line: Below -0.03 on z-score? Entry CC1(C)OC[C@@]23C=C(Br)[C@@H](C[C@H]12)[C@@]1(CO1)C3=O
Response line: true

Prompt line: Quick check: does CO[C@H]1O[C@H](CO)[C@@H](OC(=O)Nc2ccc(C(F)(F)F)cc2)[C@H](OC(=O)Nc2ccccc2-c2ccccc2)[C@@H]1OC(=O)Nc1ccccc1-c1ccccc1 have z-score under -0.03?
Response line: false

Prompt line: State whether -0.03 exceeds z-score recorded for O=C1NC(=O)C2C1C=CC(C(O)c1ccc(F)cc1)N2Nc1ccccn1 (stereo not given) .
Response line: true

Prompt line: # strict comparison: is reported z-score < -0.03? input = CCCC=C(CCC)[C@@H](NS(=O)(=O)c1ccc(Cl)cc1)c1ccccc1
Response line: true

Prompt line: Given CN(C)CCCC[C@@H]1NC(=O)[C@H]2C[C@@H](C(=O)NCc3ccc(F)cc3)[C@@H](c3ccc(O)cc3)N2C1=O , is recorded z-score strictly lower than -0.03?
Response line: false

Prompt line: Identify whether the compound COc1ccc([Si](C)(C)[C@H]2[C@H](CCn3cc([C@H](O)c4ccccc4)nn3)O[C@@]3(C(=O)N(C)c4c(Br)cc(C)cc43)[C@@H]2C)cc1 records z-score below -0.03.
Response line: false

Prompt line: Please indicate whether the reported z-score of COc1ccc(CCNC(=O)[C@@]2(C)c3ccccc3C(=O)N(Cc3cc(C(F)(F)F)cc(C(F)(F)F)c3)[C@H]2c2ccc(CO)cc2)cc1 is strictly below -0.03.
Response line: false

Prompt line: Dear colleague, could you confirm whether z-score of CCCCCN1CC=CC23O[C@@H]4C=CCOC(=O)[C@@H]4[C@H]2C(=O)N(CCCCCO)[C@@H]3C1=O (stereo not given in full) falls below -0.03? Thanks.
Response line: true

Prompt line: Is z-score strictly under -0.03 for the entry C=CCN1C(=O)[C@]2(O[C@H](CCO)[C@@H]([Si](C)(C)c3ccc(OC)cc3)[C@@H]2C)c2ccccc21 ?
Response line: true

Prompt line: Is z-score strictly under -0.03 for the entry CCOC(=O)C[C@H]1[C@H](OC(=O)c2ccc(C(=O)c3ccccc3)cc2)[C@@H](NC(=O)c2ccc3ccccc3c2)c2cc(OCCCO)ccc2N1C(=O)c1ccc2ccccc2n1 ?
Response line: false

Prompt line: Would you kindly verify if z-score of C=C(CCCC)C(=O)CC[C@H](OC(=O)c1cccnc1)c1ccc(CO)o1 is strictly less than -0.03?
Response line: true

Prompt line: Is z-score strictly under -0.03 for the entry COC(=O)[C@@]1(Cc2ccc(OC)cc2)[C@@H]2[C@@H](CC(=O)[C@H]2CC(=O)C(=O)N2CCCC2)CN1C(=O)c1ccccc1 ?
Response line: false

Prompt line: Say whether its z-score is strictly beneath -0.03. Entry: COc1ccc([Si](C)(C)[C@H]2[C@H](CCn3cc([C@H](O)c4ccccc4)nn3)O[C@@]3(C(=O)N(c4ccccc4)c4ccccc43)[C@@H]2C)cc1
Response line: false
